assay: yeast display, Sf9 membrane polyspecificity reagent, FACS + sequencing; frameworks hold sequencing errors
measured quantity: polyreactivity (PSR sort gate)

QVQLVESGVGLVQAGGSLRLSCAASGSTFVKYVIGWYRQAPGKERELVAAISRSGGSTYYADSVKGRFTISRDNAKNTDYLQMNSLKPDDTAVYYCAARLFYRLDYRGGYYYWGQGTQVTVSS :: high polyreactivity
QVQLVESGGGLVQAGGSLRLSCAASGLSSGFNVMGWYRQAPGKERELVAAIRSTGSPKYADSVKGRFTISRDNAKNTVYLQMNSLKPEDTAVYYCFRYSFYLNYWGQGTQVTVSS :: high polyreactivity

====

test: yeast display, Sf9 membrane polyspecificity reagent, FACS + sequencing; frameworks hold sequencing errors
measured quantity: polyreactivity (PSR sort gate)

QVQLVESGGGLVQAGGSLRLSCAASGRIFYYYTMGWYRQAPGKERELVADISRGGSTYYADSVKGRFTISRDNAKNTVYLQMNSLKPEDTAVYYCNAVTRIQTSYPSNWGMMDYWGQGTQVTVSS :: low polyreactivity
QVQLVESGGGLVQAGGSLRLSCAASGITFIYYMGWYRQAPGKERELVAAITWSGGSTYYADSVKGRFTISRDNAKNTVLLQMNSLKPVDNAVYYCAAVRRAEEYDYWGQGTQVTVSS :: low polyreactivity

====

assay: yeast display, Sf9 membrane polyspecificity reagent, FACS + sequencing; frameworks hold sequencing errors
measured quantity: polyreactivity (PSR sort gate)

QVQLVESGGGLVQAGGSLRLSCAASGSTFGYNAMGGYRQAPGKERELVAAITWTGASTYYADSVKGRFTISRDNAKNTVYLQMNSLKPEDTAVYYCNLVGYQSMNYWGQGTQVTVSS :: low polyreactivity
QVQLVESGGGLVQAGGSLRLSCAASGSIFKKYAMGWYRPAPGKERELVAAITRGTYYADSVKGRFTISRDNAKNTVYLQMNSLKPEDTAVYDCNREYWGRGYYRVRGEYDYWGQGTQVSVSS :: low polyreactivity
QVQLVESGGGLVQAGGSLRLSCAASGIIFQLNAMGWYRQAPGKERELVAAISSVGSTYYADSVKGRFTISRDNAKNTVYLQMNSLKPEDTAVYYCAAETYSTAHNAYFEIAYYWGQGTQVTVSS :: high polyreactivity
QVHLVESGGGLVQAGGSLRLSCAASGRIFRYNAMGWYRQAPVKESELVAAISSIGGRTYYADSVKGRFTISRDNAKNTVYLQMNSLQPEDTAVYNCAALSYYVDGEYDYWGQGTQVTVSS :: high polyreactivity
QVQLVESGGGLVQAGGSLRLSCAASGSTFTSYAMGWYRQAPGKERELVAAISKSGGSTYYADSVKGRFTISRDNAKKTVYFQMNSLKPEDTAVYYCAARYNVRSFSTSSFDYWGQGTQVTVSS :: low polyreactivity

Could you now consider this next sequence?
Param item = `QVQLVESGGGLVQAGGSLRLSCAASGSTFWANAMGWYRQAPGKERELVAGITWNAGSTYYADSVKGRFTISRDYAKNNVYFQMNSLNPEDTAVDYCAAYYHFQGWGPGYNSWGQGTQVTVSS` ; retrieve measured polyreactivity (PSR sort gate). low polyreactivity

====

assay: yeast display, Sf9 membrane polyspecificity reagent, FACS + sequencing; frameworks hold sequencing errors
measured quantity: polyreactivity (PSR sort gate)

Below: 4 sequences and their reported polyreactivity (PSR sort gate).
QVQHVESGVGLVQPVGSLRLSCAASGSTIVSNAMGWERQAPGKERELVAAISTSGGTTDYPDSVKGRFTISRHNAKNTVYLQMNCLKPEDTAVYYCAARHYYVKHSYDYWGQGTQVTVSS :: low polyreactivity
QVQLVESGGGLDQAGGSLRLSSAASGSIFLPNAMGWYRQAPGKEREFVADISWTGGRTYYADSVKGRFTISRDNAKHTVYLQMNRLKQEDTAVYYCAAKQYRYGLDYWGQGTQVTVSS :: high polyreactivity
QVQLEESGGGLVQAGGSLRLSCAASGRTFVPYAMGWYRQAPGKERELVAAINSGGSTYYADSVKGRFTISRDNAKNTVYLQMNSLKPEDTAVYYCAAEYWNSRFSYAYGYWGQGTQVTVSS :: high polyreactivity
QVQLVESGGGLVQAGGSLRLSCAASGSTFRYNAMGWYRQAPGKERELVAAITSTGDSTYYADSVKGRFTISRDNAKNTVYLQMNSLKPEVTAVYYCAARSYASPGWRYEFWGQGTQVTVSS :: low polyreactivity

Okay, next one:
Entry `QVQLVESGGGLVQAGGSLRLSCASGSTYVYAMGWYRQAPGKERELVATISSTGSTYYADSVKGRFTISRDNAKNTVYLQMNSLKQEDTAVYYCAADVWNNGWIYGSYDEYDYWGQGTQVTVSS` has what polyreactivity (PSR sort gate)? high polyreactivity
